# assay: Drug metabolism in rat liver microsomes assessed as compound turnover at 1 uM after 30 mins
# Format: ADME
# condition: read-out: Drug metabolism
endpoint-name: metabolised at 0.5 h, 1 µM (%)

(a) CCn1nccc1Oc1cc(CC2CCOCC2)cnc1NC(=O)NC
(b) CCc1ncccc1Oc1cc(CCCC(C)(C)O)cnc1NC(=O)NC
(c) CCOCCc1cnc(NC(=O)NC)c(Oc2cccnc2CC)c1
(d) CCc1ncccc1Oc1cc(CCCCOC)cnc1NC(=O)NC
(Q) Descending sort on metabolised at 0.5 h, 1 µM required. Returns: the labels listed in the requested order.
(A) c, d, a, b
(c: 76%, d: 41%, a: 25%, b: 17%)

###

# assay: Half life in mouse at 1 mg/kg, iv
# Assay type: ADME, organism-based
# Parameters: dose 1 mg/kg, route intravenous
# condition: in vivo
endpoint-name: half-life (min)
Please reply with the bare figure in min and do not write the unit itself.

Notebook: CCn1nccc1Oc1cc(CC2CCOCC2)cnc1NC(=O)NC , half-life read as 43.2

###

# assay: AUC in rat at 10 mg/kg, po
# Assay type: ADME, organism-based
# Set-up: dose 10 mg/kg, route oral
# condition: plasma
endpoint-name: AUC (µM·h)
Please reply with the bare figure in µM·h and do not write the unit itself.

Notebook: CCn1nccc1Oc1cc(CC2CCOCC2)cnc1NC(=O)NC , AUC read as 3.51

###

# assay: Plasma protein binding in human
# Format: ADME, cell-free
# condition: read-out: PPB (converted)
endpoint-name: fraction unbound
Answer field: number only, no words.

Notebook: CCn1nccc1Oc1cc(C[C@H]2C[C@](C)(O)C2)cnc1NC(=O)NC , fraction unbound read as 0.44

###

# assay: Clearance in rat at 0.5 mg/kg, iv
# Type: ADME, organism-based
# Design: dose 0.5 mg/kg, route intravenous
# condition: in vivo
endpoint-name: clearance (mL/min/kg)
Please reply with the bare figure in mL/min/kg and do not write the unit itself.

Notebook: CCn1nccc1Oc1cc(C[C@H]2C[C@](C)(O)C2)cnc1NC(=O)NC , clearance read as 26.7

###

# experimental-target: Hexokinase-4 (Homo sapiens)
# Sequence (P35557 whole entry): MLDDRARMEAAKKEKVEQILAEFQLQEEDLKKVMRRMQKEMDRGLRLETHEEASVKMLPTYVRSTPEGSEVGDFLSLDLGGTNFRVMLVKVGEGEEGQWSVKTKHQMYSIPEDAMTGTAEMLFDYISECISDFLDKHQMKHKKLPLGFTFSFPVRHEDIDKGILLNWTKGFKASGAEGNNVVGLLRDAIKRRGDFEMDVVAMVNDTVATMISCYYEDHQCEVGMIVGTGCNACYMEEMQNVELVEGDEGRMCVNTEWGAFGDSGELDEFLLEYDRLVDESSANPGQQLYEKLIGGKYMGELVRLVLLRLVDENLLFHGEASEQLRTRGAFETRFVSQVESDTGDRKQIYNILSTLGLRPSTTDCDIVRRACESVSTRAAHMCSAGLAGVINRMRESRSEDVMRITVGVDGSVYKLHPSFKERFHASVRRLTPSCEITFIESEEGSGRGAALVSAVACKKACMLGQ
# assay: Activation of human recombinant Glucokinase measured over 5 mins by G6-PD coupled assay in presence of 5 mM glucose and 4% HSA
endpoint-name: EC50 (nM)
Please reply with the bare figure in nM and do not write the unit itself.

Noted EC50 for CCn1nccc1Oc1cc(C[C@H]2C[C@](C)(O)C2)cnc1NC(=O)NC , tested on Hexokinase-4 (Homo sapiens): 280

###

# assay: Permeability across pig LLC-PK cells
# Format: ADME, cell-based, Sus scrofa
# condition: LLC-PK1, read-out: permeability
endpoint-name: Papp (×10⁻⁶ cm/s)
Please reply with the bare figure in ×10⁻⁶ cm/s and do not write the unit itself.

Notebook: CCn1nccc1Oc1cc(C[C@H]2C[C@](C)(O)C2)cnc1NC(=O)NC , Papp read as 32.4

###

# assay: Volume of distribution at steady state in rat at 1 mg/kg, iv
# Format: ADME, organism-based
# Design: dose 1 mg/kg, route intravenous
# condition: in vivo, read-out: Vdss
endpoint-name: Vd (L/kg)
Please reply with the bare figure in L/kg and do not write the unit itself.

Notebook: CCn1nccc1Oc1cc(CC2CCOCC2)cnc1NC(=O)NC , Vd read as 0.8

###

# experimental-target: Hexokinase-4 (Homo sapiens)
# assay: Activation of human recombinant Glucokinase measured over 5 mins by G6-PD coupled assay in presence of 5 mM glucose
endpoint-name: EC50 (nM)

Some compounds with recorded EC50:
CCn1nccc1Oc1cc(C(O)C2CCOCC2)cnc1NC(=O)NC (stereo not given) = 16800
CCn1nccc1Oc1cc(C[C@@H]2CCO[C@@H](COC)C2)cnc1NC(=O)NC = 350
CCc1ncccc1Oc1cc(CC2CCCCC2)cnc1NC(=O)NC = 14
CCn1nc(COC)cc1Oc1cc(CC2CCOCC2)cnc1NC(=O)NC = 820
CCn1nccc1Oc1cc(CN2CCOCC2)cnc1NC(=O)NC = 7980

(a) CCc1ncccc1Oc1cc(CCCCOC)cnc1NC(=O)NC
(b) CCc1ncccc1Oc1cc(CCCCO)cnc1NC(=O)NC
(c) CCn1nccc1Oc1cc(C[C@H]2C[C@@](C)(O)C2)cnc1NC(=O)NC
(d) CCn1nccc1Oc1cc(C[C@H]2CC[C@H](O)CC2)cnc1NC(=O)NC
(Q) Hi! Can you put these in order of EC50, lowest number first? Returns: the labels listed in the requested order.
(A) d, a, b, c

(1) CCn1nccc1Oc1cc(C[C@H]2CCO[C@H](COC)C2)cnc1NC(=O)NC
(2) CCc1ncccc1Oc1cc(CCCC(C)(C)O)cnc1NC(=O)NC
(3) CCc1ncccc1Oc1cc(CCO)cnc1NC(=O)NC
(Q) Order the 3 compounds from highest to lowest EC50. Returns: the labels listed in the requested order.
(A) 3, 1, 2

(1) CCn1nccc1Oc1cc(C[C@H]2CC[C@](C)(O)CC2)cnc1NC(=O)NC
(2) CCn1nccc1Oc1cc(CC2CCOCC2)cnc1NC(=O)NC
(Q) Name the one with the greater EC50 value, either 1 or 2 as given. Field: selected label. Fill in the label of the entry you choose.
(A) 2

(P) CCOCCc1cnc(NC(=O)NC)c(Oc2cccnc2CC)c1
(Q) CCc1ncccc1Oc1cc(CC(C)C)cnc1NC(=O)NC
(R) CCc1ncccc1Oc1cc(CC2CCOCC2)cnc1NC(=O)NC
(Q) Order the 3 compounds from highest to lowest EC50. Returns: the labels listed in the requested order.
(A) P, R, Q
(P: 590 nM, R: 290 nM, Q: 120 nM)
